Test system: HGGX6 (H3.3 G34R paediatric high-grade glioma line)
Test: growth inhibition (% activity, log2 RLU normalised to DMSO / staurosporine); higher = more growth inhibition
Conditions: 33 µM
Readout type: growth inhibition

Qu. Recorded growth inhibition of CC(C)(C)C(=O)C(Oc1ccc(Cl)cc1)n1ccnc1 (centres undefined) , please.
Ans. 4.74%

Qu. Recorded growth inhibition of CN1C(C(=O)Nc2ccccn2)=C(O)c2ccccc2S1(=O)=O , please.
Ans. -2.07%

Qu. Recorded growth inhibition of CC(C(=O)O)c1ccc(C(=O)c2cccs2)cc1 (centres undefined) , please.
Ans. 1.96%

Qu. Recorded growth inhibition of O=C(O)C(=O)O.[NH-]C1CCCCC1[NH-].[Pt+2] (centres undefined) , please.
Ans. 1.66%

Qu. Recorded growth inhibition of CC[C@H]1OC(=O)[C@H](C)[C@@H](O[C@H]2C[C@@](C)(OC)[C@@H](O)[C@H](C)O2)[C@H](C)[C@@H](O[C@@H]2O[C@H](C)C[C@H](N(C)C)[C@H]2O)[C@](C)(O)C[C@@H](C)[C@@H]2N[C@@H](COCCOC)O[C@H]([C@H]2C)[C@]1(C)O , please.
Ans. -1.07%

Qu. Recorded growth inhibition of COc1ccc(Cl)cc1C(=O)NCCc1ccc(S(=O)(=O)NC(=O)NC2CCCCC2)cc1 , please.
Ans. 0.0176%

Qu. Recorded growth inhibition of CCOc1cc(CC(=O)N[C@@H](CC(C)C)c2ccccc2N2CCCCC2)ccc1C(=O)O , please.
Ans. -1.18%

Qu. Recorded growth inhibition of NCCS , please.
Ans. -3.18%

Qu. Recorded growth inhibition of COc1cc(/C=C/C(=O)N2CCN(CC(=O)N3CCCC3)CC2)cc(OC)c1OC , please.
Ans. -2.67%
